# systemUnderTest: peripheral anionic site (PAS) of Electrophorus electricus AChE (EeAChE) (Electrophorus electricus, UniProt O42275)
# Construct: purchased Sigma-Aldrich type VI-S
# Sequence (O42275 24-633): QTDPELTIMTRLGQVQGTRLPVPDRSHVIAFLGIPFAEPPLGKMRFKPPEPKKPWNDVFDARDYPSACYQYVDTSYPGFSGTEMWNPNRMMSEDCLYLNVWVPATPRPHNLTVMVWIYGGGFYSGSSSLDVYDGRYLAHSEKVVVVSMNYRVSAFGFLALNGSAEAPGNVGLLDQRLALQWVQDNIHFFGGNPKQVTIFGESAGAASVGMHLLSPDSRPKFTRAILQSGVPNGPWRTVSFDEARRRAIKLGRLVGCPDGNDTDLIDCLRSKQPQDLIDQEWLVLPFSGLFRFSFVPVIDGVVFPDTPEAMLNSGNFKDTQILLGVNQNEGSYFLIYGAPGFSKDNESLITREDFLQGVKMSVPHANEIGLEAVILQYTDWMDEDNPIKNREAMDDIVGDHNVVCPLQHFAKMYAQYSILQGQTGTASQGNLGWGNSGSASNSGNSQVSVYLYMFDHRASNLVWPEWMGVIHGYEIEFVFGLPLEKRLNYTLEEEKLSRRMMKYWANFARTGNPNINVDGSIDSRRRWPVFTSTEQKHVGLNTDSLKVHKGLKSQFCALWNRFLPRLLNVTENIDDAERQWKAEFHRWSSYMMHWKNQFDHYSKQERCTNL
# procedureDetails: Propidium displacement from the EeAChE PAS (fluorescence)
# Type: binding
# conditionLabel: compound concentration 20 µM; EeAChE 7 μM, propidium iodide 8 μM, Tris-HCl pH 8.0; n.a. = not active
experimentalEndpoint: Propidium Displacement, (%)

C=C(C)[c-]1cccc1.[Fe+2].c1cc[c-](-c2ccnnc2)c1 : zero
C=C(C)[c-]1cccc1.[Fe+2].c1cc[cH-]c1 [compound 8, isopropenylferrocene, reference compound] : zero
C=C(C)[c-]1cccc1.[Fe+2].c1ccc(-[c-]2cccc2)nc1 : zero

These data points were gathered from paper PMC12736194.
